- System: Escherichia coli TOP10;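 note: peptides expressed intracellularly from a pBAD plasmid library in pooled LB shake-flask culture, induced with 0.3% L-arabinose, DNA abundance read by NGS, three biological replicates, DESeq2 with apeglm shrinkage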
- method.description: shrunken log2 fold change of peptide-encoding DNA abundance (4.5 h post-induction vs induction); higher = less antimicrobial activity (less host growth inhibition)
- study.conditions: time post-induction: 4.5 h; library: site-saturation at positions 5, 18, 19, 20
Below is a list of entries, each paired with its recorded shrunken log2 fold change value.
Field format: numeric only.

RRIRARPPRLPRPRPRPQPGPRP: 0.563
RRIRLRPPRLPRPRPRPEVLPRP: -0.0871
RRIRDRPPRLPRPRPRPLFCPRP: 0.208
RRIRGRPPRLPRPRPRPILNPRP: -0.0611

(Q) Data request, read-out shrunken log2 fold change, for RRIRRRPPRLPRPRPRPRDPPRP
(A) 0.74

(Q) Request: RRIRKRPPRLPRPRPRPMTSPRP
(A) 0.0716

(Q) Request: RRIRHRPPRLPRPRPRPFWNPRP
(A) 0.034

(Q) Request: RRIRWRPPRLPRPRPRPCYDPRP
(A) -0.00133

(Q) Request: RRIRHRPPRLPRPRPRPTSSPRP
(A) -0.0142

(Q) Request: RRIRQRPPRLPRPRPRPRVKPRP
(A) 0.103

(Q) Request: RRIRRRPPRLPRPRPRPPSWPRP
(A) 0.295

(Q) Request: RRIRDRPPRLPRPRPRPELYPRP
(A) 1.13

(Q) Request: RRIRFRPPRLPRPRPRPHLFPRP
(A) -0.238

(Q) Request: RRIRWRPPRLPRPRPRPMIMPRP
(A) -0.0612
